target: GluN2B-V618G-containing NMDARs (Homo sapiens, UniProt Q05586+Q13224, V618G); assay: TEVC current recordings from Xenopus oocytes, channel blocker inhibition; type: cell-based; conditions: IC50, 2B-V618G; w/o Mg^2+; holding −40 mV
pIC50: −log10 of the molar value.
Parameter: pIC50. Scope: all listed entries.
value_type: pIC50

{"compound": "CNC1(c2ccccc2Cl)CCCCC1=O (centres unmarked) [ketamine]", "value_type": "pIC50", "reading": 4.74}
{"compound": "COc1ccc2c(c1)[C@]13CCCC[C@@H]1[C@H](C2)N(C)CC3 [dextromethorphan]", "value_type": "pIC50", "reading": 4.35}

###

biological target: GluN1-G620R/GluN2A (Homo sapiens, UniProt Q05586+Q12879, G620R); test: TEVC current recordings from Xenopus oocytes, channel blocker inhibition; format: cell-based; conditions: IC50, 1-G620R/2A; w/o Mg^2+; holding −40 mV

{"molecule": "CNC1(c2ccccc2Cl)CCCCC1=O (centres unmarked) [ketamine]", "IC50": "2.5 µM"}
{"molecule": "COc1ccc2c(c1)[C@]13CCCC[C@@H]1[C@H](C2)N(C)CC3 [dextromethorphan]", "IC50": "4.4 µM"}

###

target: GluN1/GluN2A-L611Q (Homo sapiens, UniProt Q05586+Q12879, L611Q); experiment: Current-voltage curves; conditions: read-out: KD, 0 mV; 2A-L611Q; 1 mM Mg^2+ alone
pKd: −log10 of the molar value.
value_type: pKd

{"compound_smiles": "[Mg+2]", "value_type": "pKd", "reading": 1.89}

###

target: GluN2B-G611V-containing NMDARs (Homo sapiens, UniProt Q05586+Q13224, G611V); assay: TEVC current recordings from Xenopus oocytes, channel blocker inhibition; assay type: cell-based; conditions: IC50, 2B-G611V; w/ 1 mM Mg^2+; holding −40 mV
value_type: IC50 (µM)

{"molecule": "CNC1(c2ccccc2Cl)CCCCC1=O (centres unmarked)", "reading": 8}
{"molecule": "COc1ccc2c(c1)[C@]13CCCC[C@@H]1[C@H](C2)N(C)CC3", "reading": 6.2}

###

target: GluN1/GluN2A-L611Q (Homo sapiens, UniProt Q05586+Q12879, L611Q); assay: TEVC current recordings from Xenopus oocytes, channel blocker inhibition; format: cell-based; settings: IC50, 2A-L611Q; w/o Mg^2+; holding −40 mV
Parameter: IC50. Scope: all listed entries.
value_type: IC50 (µM)

{"compound": "CNC1(c2ccccc2Cl)CCCCC1=O (centres unmarked) [ketamine]", "reading": 7.2}
{"compound": "COc1ccc2c(c1)[C@]13CCCC[C@@H]1[C@H](C2)N(C)CC3 [dextromethorphan]", "reading": 27}

###

biological target: GluN1/GluN2B-N615I (Homo sapiens, UniProt Q05586+Q13224, N615I); test: TEVC current recordings from Xenopus oocytes, channel blocker inhibition; assay type: cell-based; details: IC50, 2B-N615I; w/ 1 mM Mg^2+; holding −40 mV
Parameter: IC50. Scope: all listed entries.
value_type: IC50 (µM)

{"compound": "CNC1(c2ccccc2Cl)CCCCC1=O (centres unmarked) [ketamine]", "value_type": "IC50", "reading": 0.76}
{"compound": "COc1ccc2c(c1)[C@]13CCCC[C@@H]1[C@H](C2)N(C)CC3 [dextromethorphan]", "value_type": "IC50", "reading": 17}

###

target: GluN1/GluN2B-N615K (Homo sapiens, UniProt Q05586+Q13224, N615K); assay: TEVC current recordings from Xenopus oocytes, channel blocker inhibition; type: cell-based
pIC50: −log10 of the molar value.
Parameter: pIC50. Scope: all listed entries.
value_type: pIC50

{"molecule": "COc1ccc2c(c1)[C@]13CCCC[C@@H]1[C@H](C2)N(C)CC3 [dextromethorphan]", "reading": "< 3.52"}
{"molecule": "CNC1(c2ccccc2Cl)CCCCC1=O (centres unmarked) [ketamine]", "reading": "< 4.00"}

###

biological target: GluN2A-N614S-containing NMDARs (Homo sapiens, UniProt Q05586+Q12879, N614S); test: TEVC current recordings from Xenopus oocytes, channel blocker inhibition; assay type: cell-based; conditions: IC50, 2A-N614S; w/o Mg^2+; holding −40 mV
value_type: IC50 (µM)

{"compound": "CNC1(c2ccccc2Cl)CCCCC1=O (centres unmarked) [ketamine]", "value_type": "IC50", "unit_symbol": "µM", "reading": 29}
{"compound": "COc1ccc2c(c1)[C@]13CCCC[C@@H]1[C@H](C2)N(C)CC3 [dextromethorphan]", "value_type": "IC50", "unit_symbol": "µM", "reading": 22}

###

target: GluN1/GluN2A-L611Q (Homo sapiens, UniProt Q05586+Q12879, L611Q); experiment: TEVC current recordings from Xenopus oocytes, channel blocker inhibition; type: cell-based; conditions: IC50, 2A-L611Q; w/ 1 mM Mg^2+; holding −40 mV

{"molecule": "CNC1(c2ccccc2Cl)CCCCC1=O (centres unmarked)", "test_system": "GluN1/GluN2A-L611Q (Homo sapiens, UniProt Q05586+Q12879, L611Q)", "IC50 [µM]": 4}
{"molecule": "COc1ccc2c(c1)[C@]13CCCC[C@@H]1[C@H](C2)N(C)CC3", "test_system": "GluN1/GluN2A-L611Q (Homo sapiens, UniProt Q05586+Q12879, L611Q)", "IC50 [µM]": 36}

###

target: GluN2B-N616K-containing NMDARs (Homo sapiens, UniProt Q05586+Q13224, N616K); experiment: TEVC current recordings from Xenopus oocytes, channel blocker inhibition; format: cell-based; conditions: IC50, 2B-N616K; w/o Mg^2+; holding −40 mV
Parameter: IC50. Scope: all listed entries.
value_type: IC50 (µM)

{"compound": "COc1ccc2c(c1)[C@]13CCCC[C@@H]1[C@H](C2)N(C)CC3 [dextromethorphan]", "test_system": "GluN2B-N616K-containing NMDARs (Homo sapiens, UniProt Q05586+Q13224, N616K)", "value_type": "IC50", "reading": 3.2}
{"compound": "CNC1(c2ccccc2Cl)CCCCC1=O (centres unmarked) [ketamine]", "test_system": "GluN2B-N616K-containing NMDARs (Homo sapiens, UniProt Q05586+Q13224, N616K)", "value_type": "IC50", "reading": 2.3}

###

target: WT GluN1/GluN2A (Homo sapiens, UniProt Q05586+Q12879); experiment: TEVC current recordings from Xenopus oocytes, channel blocker inhibition; type: cell-based; conditions: IC50, WT GluN1/WT 2A; w/o Mg^2+; holding −40 mV
Parameter: IC50. Scope: all listed entries.
value_type: IC50 (µM)

{"compound": "COc1ccc2c(c1)[C@]13CCCC[C@@H]1[C@H](C2)N(C)CC3 [dextromethorphan]", "unit_symbol": "µM", "reading": 11}
{"compound": "CNC1(c2ccccc2Cl)CCCCC1=O (centres unmarked) [ketamine]", "unit_symbol": "µM", "reading": 5.5}
